target: human MC3R (human, UniProt P41968 1-323); experiment: cell-based or functional assay
Sequence (P41968 whole entry): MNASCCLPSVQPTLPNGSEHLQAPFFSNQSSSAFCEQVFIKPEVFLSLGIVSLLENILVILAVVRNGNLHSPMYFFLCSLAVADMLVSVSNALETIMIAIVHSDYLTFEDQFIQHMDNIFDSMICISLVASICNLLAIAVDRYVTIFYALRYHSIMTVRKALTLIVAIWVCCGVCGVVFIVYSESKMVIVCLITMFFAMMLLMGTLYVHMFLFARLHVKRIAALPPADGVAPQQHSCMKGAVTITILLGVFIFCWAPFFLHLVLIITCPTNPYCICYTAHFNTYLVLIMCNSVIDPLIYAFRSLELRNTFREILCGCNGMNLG
Non-standard residues stand in square brackets, D forms with d. Bip = N[C@@H](Cc1ccc(-c2ccccc2)cc1)C(=O)O; Phe(4-I) = N[C@@H](Cc1ccc(I)cc1)C(=O)O; Nle = CCCC[C@H](N)C(=O)O

Binder: Ac-[Nle]GHFR[dW]DRFG-OH (SMILES CCCC[C@H](NC(C)=O)C(=O)NCC(=O)N[C@@H](Cc1c[nH]cn1)C(=O)N[C@@H](Cc1ccccc1)C(=O)N[C@@H](CCCNC(=N)N)C(=O)N[C@H](Cc1c[nH]c2ccccc12)C(=O)N[C@@H](CC(=O)O)C(=O)N[C@@H](CCCNC(=N)N)C(=O)N[C@@H](Cc1ccccc1)C(=O)NCC(=O)O) [CTX-1185]
MC3R selectivity (relative to MC4R): 2310
--
Binder: Ac-[Nle][dA]H[Bip]R[dW]DRFG-NH2 (SMILES CCCC[C@H](NC(C)=O)C(=O)N[C@H](C)C(=O)N[C@@H](Cc1c[nH]cn1)C(=O)N[C@@H](Cc1ccc(-c2ccccc2)cc1)C(=O)N[C@@H](CCCNC(=N)N)C(=O)N[C@H](Cc1c[nH]c2ccccc12)C(=O)N[C@@H](CC(=O)O)C(=O)N[C@@H](CCCNC(=N)N)C(=O)N[C@@H](Cc1ccccc1)C(=O)NCC(N)=O) [CTX-1168]
MC3R selectivity (relative to MC4R): 485
--
Binder: Ac-[Nle][dA]H[Phe(4-I)][dR]WDRFG-OH (SMILES CCCC[C@H](NC(C)=O)C(=O)N[C@H](C)C(=O)N[C@@H](Cc1c[nH]cn1)C(=O)N[C@@H](Cc1ccc(I)cc1)C(=O)N[C@H](CCCNC(=N)N)C(=O)N[C@@H](Cc1c[nH]c2ccccc12)C(=O)N[C@@H](CC(=O)O)C(=O)N[C@@H](CCCNC(=N)N)C(=O)N[C@@H](Cc1ccccc1)C(=O)NCC(=O)O) [CTX-1501]
MC3R selectivity (relative to MC4R): 0.01
